B1: tRNA (parent)
chain: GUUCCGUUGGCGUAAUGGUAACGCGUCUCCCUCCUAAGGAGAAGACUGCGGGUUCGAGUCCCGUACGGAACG

# Variants of: B1
# measurement-description: yeast fitness relative to wild type (ratio to wild type); higher = fitter; tRNA-Arg(CCU), competitive growth, 37 C, YPD
Variants at the floor of the assay were thinned out.
measured-property: yeast fitness

> print(dat)
                      variant.notation  measured.property  data.value
 1                      G23A C49A G58A      yeast fitness       ≤ 0.5
 2                      A36U C61G A65C      yeast fitness       ≤ 0.5
 3             U7G G12A G25A C33G C62U      yeast fitness       ≤ 0.5
 4                      C49A A57C A65G      yeast fitness       ≤ 0.5
 5                      A14C A43U C61U      yeast fitness       ≤ 0.5
 6                 G12A C27U A37C A45G      yeast fitness       ≤ 0.5
 7                       G9A G23C A37G      yeast fitness       ≤ 0.5
 8                      C30U C31G A57U      yeast fitness       ≤ 0.5
 9                       C5A C24G C34G      yeast fitness       ≤ 0.5
10  C29G C30U C46U G48A G56A C61U C62G      yeast fitness       ≤ 0.5
11                       G9A A14U G48C      yeast fitness       ≤ 0.5
12                      C34U A40G U47C      yeast fitness       ≤ 0.5
13       A21G G23A C31U G63C U64A C66G      yeast fitness       ≤ 0.5
14                 U16G U28A A42U U54A      yeast fitness       ≤ 0.5
15                       G9C A37G C62U      yeast fitness       ≤ 0.5
16                      G23C A65G C66A      yeast fitness       ≤ 0.5
17                  U7C U35G U64C A70G      yeast fitness       ≤ 0.5
18             G9A A21G U32G G39C G52C      yeast fitness       ≤ 0.5
19                       C4A U28C U47C      yeast fitness       ≤ 0.5
20                      U26C G56C A65G      yeast fitness       ≤ 0.5
21                  C5U A14C G41C A43C      yeast fitness       ≤ 0.5
22                 C31U G48A C61U A65C      yeast fitness       ≤ 0.5
23                  U8A A43U G52C C60A      yeast fitness       ≤ 0.5
24              C5G U8C A15G C29A G39A      yeast fitness       ≤ 0.5
25                  C4A C33A C60A U64C      yeast fitness       ≤ 0.5
26                      A21C C34U C66U      yeast fitness       ≤ 0.5
27                           A15C C62A      yeast fitness       0.665
28                 A15C A20G A65U A69G      yeast fitness       ≤ 0.5
29                           A40U G63A      yeast fitness       0.721
30   C4U G10C A21G C30A G38C C46U A70C      yeast fitness       ≤ 0.5
31         U2A C5G G41A A43U U54G A57U      yeast fitness       ≤ 0.5
32                           U26C U64A      yeast fitness       0.699
33                           U16A C22U      yeast fitness       0.773
34             U8C G38C C49U C62U A69U      yeast fitness       0.568
35                       U7C C31U U32G      yeast fitness       0.542
36                 A45U A57U U59G U64G      yeast fitness       ≤ 0.5
37                           A37U U47C      yeast fitness       0.667
38  A14G A20U A36U G51C G52C C60U G67A      yeast fitness       ≤ 0.5
39                       U8A G17A C22U      yeast fitness       0.607
40                      C27A U35C A42U      yeast fitness       ≤ 0.5
41                      C24G G25A C31G      yeast fitness       0.703
42                            C4A A45C      yeast fitness       0.754
43                 G10A A21G C30U G50C      yeast fitness       0.752
